Biological target: rat α1B+α2b+β1b channels (N-type channels) (Rattus norvegicus)
Construct: expressed in transfected cells
Assay: Block of α1B N-type channels, whole cell patch recordings (Example 6)
Type: cell-based
Conditions: 0.2 Hz; HEK 293, 5 mM barium as charge carrier; read-out: Block of α1B N-type Channels IC50, 0.2 Hz
pIC50: −log10 of the molar value.
readout_name: pIC50

>  <compound>
CC(C)(C)c1cc(C(c2ccccc2)N2CCN(C(=O)CC(c3ccccc3)c3ccccc3)CC2)cc(C(C)(C)C)c1O (stereo not drawn)

>  <pIC50>
6.94

$$$$

[P] O=C(CC(c1ccccc1)c1ccccc1)N1CCN(C(c2ccccc2)c2ccccc2OC(F)F)CC1 (stereo not drawn)
[Q] O=C(CC(c1ccccc1)c1ccccc1)N1CCN(C(c2ccccc2)c2ccc(Cl)cc2)CC1 (stereo not drawn)
INPUT: Please tell me which of the two, P or Q , has the higher reported pIC50 value. State your choice using its label.
OUTPUT: Q

###

Target: human α1G subunits (T-type channels) (Homo sapiens)
Construct: expressed in transfected cells
Sequence (O43497 whole entry): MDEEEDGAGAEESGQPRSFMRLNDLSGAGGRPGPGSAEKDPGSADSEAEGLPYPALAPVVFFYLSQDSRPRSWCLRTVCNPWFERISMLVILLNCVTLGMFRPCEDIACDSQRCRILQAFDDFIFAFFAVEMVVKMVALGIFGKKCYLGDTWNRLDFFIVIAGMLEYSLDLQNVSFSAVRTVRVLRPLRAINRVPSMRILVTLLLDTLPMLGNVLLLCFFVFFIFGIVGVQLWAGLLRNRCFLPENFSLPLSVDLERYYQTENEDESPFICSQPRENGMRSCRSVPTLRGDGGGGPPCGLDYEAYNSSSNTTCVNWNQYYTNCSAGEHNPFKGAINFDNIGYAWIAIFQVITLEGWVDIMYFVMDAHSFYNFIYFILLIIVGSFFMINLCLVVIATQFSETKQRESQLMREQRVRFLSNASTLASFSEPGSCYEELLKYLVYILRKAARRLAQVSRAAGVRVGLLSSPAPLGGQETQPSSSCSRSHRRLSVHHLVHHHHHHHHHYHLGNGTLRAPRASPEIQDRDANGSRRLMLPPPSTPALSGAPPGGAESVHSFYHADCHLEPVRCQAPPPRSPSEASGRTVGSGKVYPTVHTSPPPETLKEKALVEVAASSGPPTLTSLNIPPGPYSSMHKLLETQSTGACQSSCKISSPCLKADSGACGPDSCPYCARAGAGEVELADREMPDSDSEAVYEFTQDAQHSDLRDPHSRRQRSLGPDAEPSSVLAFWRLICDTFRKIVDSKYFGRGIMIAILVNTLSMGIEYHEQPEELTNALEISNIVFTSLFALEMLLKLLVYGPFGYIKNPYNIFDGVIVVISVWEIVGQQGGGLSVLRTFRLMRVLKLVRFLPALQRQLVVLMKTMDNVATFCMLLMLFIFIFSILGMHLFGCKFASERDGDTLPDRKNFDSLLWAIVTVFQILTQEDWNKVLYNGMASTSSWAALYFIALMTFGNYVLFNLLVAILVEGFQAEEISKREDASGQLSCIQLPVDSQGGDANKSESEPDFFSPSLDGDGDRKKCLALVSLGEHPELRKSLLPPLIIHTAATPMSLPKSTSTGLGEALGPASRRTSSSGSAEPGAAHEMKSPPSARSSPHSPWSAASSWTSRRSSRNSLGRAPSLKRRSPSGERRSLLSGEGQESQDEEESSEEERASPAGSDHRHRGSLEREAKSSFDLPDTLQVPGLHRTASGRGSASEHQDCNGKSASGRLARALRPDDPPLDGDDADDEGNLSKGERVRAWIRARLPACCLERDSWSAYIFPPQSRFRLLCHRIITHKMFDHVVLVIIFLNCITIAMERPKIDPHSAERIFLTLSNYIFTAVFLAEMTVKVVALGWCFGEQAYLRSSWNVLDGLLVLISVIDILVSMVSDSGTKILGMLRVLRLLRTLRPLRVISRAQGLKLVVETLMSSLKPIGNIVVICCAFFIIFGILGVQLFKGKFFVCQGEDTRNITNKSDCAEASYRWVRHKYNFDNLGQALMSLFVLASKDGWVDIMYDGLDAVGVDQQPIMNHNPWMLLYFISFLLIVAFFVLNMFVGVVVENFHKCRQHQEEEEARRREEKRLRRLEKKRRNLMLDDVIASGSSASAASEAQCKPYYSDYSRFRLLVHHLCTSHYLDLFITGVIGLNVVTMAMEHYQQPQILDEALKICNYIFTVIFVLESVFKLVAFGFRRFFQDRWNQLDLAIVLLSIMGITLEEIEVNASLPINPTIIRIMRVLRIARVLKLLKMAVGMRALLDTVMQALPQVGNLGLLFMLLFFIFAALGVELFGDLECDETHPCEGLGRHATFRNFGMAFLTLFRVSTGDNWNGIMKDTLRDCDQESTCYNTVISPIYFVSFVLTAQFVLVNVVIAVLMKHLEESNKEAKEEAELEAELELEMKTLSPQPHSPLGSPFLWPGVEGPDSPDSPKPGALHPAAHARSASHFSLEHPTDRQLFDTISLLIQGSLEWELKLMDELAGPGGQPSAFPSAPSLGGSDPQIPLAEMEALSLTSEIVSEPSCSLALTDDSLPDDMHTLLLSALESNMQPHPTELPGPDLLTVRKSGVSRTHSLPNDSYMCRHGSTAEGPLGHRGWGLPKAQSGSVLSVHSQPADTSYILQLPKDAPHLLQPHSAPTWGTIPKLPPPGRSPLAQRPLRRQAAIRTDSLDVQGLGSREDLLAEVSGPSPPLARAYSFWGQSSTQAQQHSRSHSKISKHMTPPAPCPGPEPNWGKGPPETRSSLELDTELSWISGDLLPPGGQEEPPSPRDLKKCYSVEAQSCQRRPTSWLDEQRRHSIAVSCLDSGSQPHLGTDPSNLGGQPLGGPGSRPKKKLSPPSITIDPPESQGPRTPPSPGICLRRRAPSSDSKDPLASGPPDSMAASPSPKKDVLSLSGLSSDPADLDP
Assay: Block of α1G T-type channels, patch clamp in HEK cell lines (Example 8)
Format: cell-based
Details: 100 mV (non-inactivating protocol); read-out: Block of α1G T-type Channels IC50, 100 mV
readout_name: IC50 (nM)

>  <molecule>
O=C(CC(c1ccccc1)c1ccccc1)N1CCN(C(c2ccccc2)c2ccc(O)cc2)CC1 (stereo not shown) [Compound P49]

>  <numeric_readout>
2700

$$$$

[a] CCOC(=O)C1CN(C(c2ccccc2)c2ccccc2)CCN1C(=O)CC(c1ccccc1)c1ccccc1 (stereo not shown) [Compound P43]
[b] O=C(CC(c1ccccc1)c1ccccc1)N1CCN(C(c2ccccc2)c2ccc(Cl)cc2)CC1 (stereo not shown) [Compound P6]
[c] O=C(CC(c1ccccc1)c1ccccc1)N1CCN([C@@H](c2ccccc2)c2ccc(Cl)cc2)CC1 [Compound P47]
INPUT: Ascending by IC50, please. Hello, could you send the labels back in the order asked? Thank you.
OUTPUT: b, c, a

###

Target: human α1G subunits (T-type channels) (Homo sapiens)
Construct: expressed in transfected cells
Test: Block of α1G T-type channels, patch clamp in HEK cell lines (Example 8)
Assay type: cell-based
Settings: 100 mV (non-inactivating protocol); read-out: Block of α1G T-type Channels IC50, 100 mV
readout_name: IC50 (nM)

>  <compound>
O=C(CC(c1ccccc1)c1ccccc1)N1CCN(C2c3ccccc3-c3ccccc32)CC1

>  <readout_name>
IC50

>  <unit_of_measurement>
nM

>  <numeric_readout>
371

$$$$

[P] Cc1ccc(C(c2ccccc2)N2CCN(C(=O)CC(c3ccccc3)c3ccccc3)CC2)c(C)c1 (stereo not drawn)
[Q] CCOC(=O)C1CN(C(c2ccccc2)c2ccccc2)CCN1C(=O)CC1c2ccccc2-c2ccccc21 (stereo not drawn)
INPUT: Please let me know which one, P or Q , has a lower measured IC50 value. State your choice using its label.
OUTPUT: P
(P: 35 nM, Q: 2200 nM)

###

System: rat formalin model
Assay: Formalin-induced pain model
Assay type: in vivo
Settings: 30 mg/kg IP, 10 minutes prior to formalin, saline control=100%
readout_name: Maximum Possible Effect ± SEM, Phase I (%)
Respond with the bare value in %.

// below: answered molecules
>  <molecule>
O=C(CC(c1ccccc1)c1ccccc1)N1CCN([C@@H](c2ccccc2)c2ccc(Cl)cc2)CC1 [Compound P47]

>  <readout_name>
Maximum Possible Effect ± SEM, Phase I

>  <numeric_readout>
60

$$$$
>  <molecule>
O=C(CC(c1ccccc1)c1ccccc1)N1CCN(C(c2ccccc2)c2cccc(Cl)c2)CC1 (stereo not shown) [Compound P36]

>  <readout_name>
Maximum Possible Effect ± SEM, Phase I

>  <numeric_readout>
62

$$$$

The recorded Maximum Possible Effect ± SEM, Phase I with rat formalin model for O=C(CC(c1ccccc1)c1ccccc1)N1CCN(C(c2ccccc2)c2cccc(C(F)(F)F)c2)CC1 (stereo not shown) [Compound P2] was 57

The recorded Maximum Possible Effect ± SEM, Phase I with rat formalin model for COc1ccc(C(c2ccc(C(F)(F)F)cc2)N2CCN(C(=O)CC(c3ccccc3)c3ccccc3)CC2)cc1 (stereo not shown) [Compound P3] was 89

The recorded Maximum Possible Effect ± SEM, Phase I with rat formalin model for O=C(CN(c1ccccc1)c1ccccc1)N1CCN(C(c2ccccc2)c2cccc(Cl)c2Cl)CC1 (stereo not shown) [Compound P50] was 60

The recorded Maximum Possible Effect ± SEM, Phase I with rat formalin model for Cl.O=C(O)C1CN(C(c2ccccc2)c2ccccc2)CCN1C(=O)CC(c1ccccc1)c1ccccc1 (stereo not shown) [Compound P8] was 78

The recorded Maximum Possible Effect ± SEM, Phase I with rat formalin model for O=C(CC(c1ccccc1)c1ccccc1)N1CCN(C(c2ccccc2)c2ccccc2Cl)CC1 (stereo not shown) [Compound P35] was 78

The recorded Maximum Possible Effect ± SEM, Phase I with rat formalin model for O=C(CC(c1ccccc1)c1ccccc1)N1CCN(C(c2ccccc2)c2ccc(Cl)cc2Cl)CC1 (stereo not shown) [Compound P29] was 78

The recorded Maximum Possible Effect ± SEM, Phase I with rat formalin model for O=C(CC(c1ccccc1)c1ccccc1)N1CCN(C(c2ccccc2)c2ccc3c(c2)OCO3)CC1 (stereo not shown) [Compound P7] was 56

The recorded Maximum Possible Effect ± SEM, Phase I with rat formalin model for Cc1ccc(C(c2ccccc2)N2CCN(C(=O)CC(c3ccccc3)c3ccccc3)CC2)c(C)c1 (stereo not shown) [Compound P18] was 73

###

Target: rat α1B+α2b+β1b channels (N-type channels) (Rattus norvegicus, UniProt Q02294)
Construct: expressed in transfected cells
Sequence (Q02294 whole entry): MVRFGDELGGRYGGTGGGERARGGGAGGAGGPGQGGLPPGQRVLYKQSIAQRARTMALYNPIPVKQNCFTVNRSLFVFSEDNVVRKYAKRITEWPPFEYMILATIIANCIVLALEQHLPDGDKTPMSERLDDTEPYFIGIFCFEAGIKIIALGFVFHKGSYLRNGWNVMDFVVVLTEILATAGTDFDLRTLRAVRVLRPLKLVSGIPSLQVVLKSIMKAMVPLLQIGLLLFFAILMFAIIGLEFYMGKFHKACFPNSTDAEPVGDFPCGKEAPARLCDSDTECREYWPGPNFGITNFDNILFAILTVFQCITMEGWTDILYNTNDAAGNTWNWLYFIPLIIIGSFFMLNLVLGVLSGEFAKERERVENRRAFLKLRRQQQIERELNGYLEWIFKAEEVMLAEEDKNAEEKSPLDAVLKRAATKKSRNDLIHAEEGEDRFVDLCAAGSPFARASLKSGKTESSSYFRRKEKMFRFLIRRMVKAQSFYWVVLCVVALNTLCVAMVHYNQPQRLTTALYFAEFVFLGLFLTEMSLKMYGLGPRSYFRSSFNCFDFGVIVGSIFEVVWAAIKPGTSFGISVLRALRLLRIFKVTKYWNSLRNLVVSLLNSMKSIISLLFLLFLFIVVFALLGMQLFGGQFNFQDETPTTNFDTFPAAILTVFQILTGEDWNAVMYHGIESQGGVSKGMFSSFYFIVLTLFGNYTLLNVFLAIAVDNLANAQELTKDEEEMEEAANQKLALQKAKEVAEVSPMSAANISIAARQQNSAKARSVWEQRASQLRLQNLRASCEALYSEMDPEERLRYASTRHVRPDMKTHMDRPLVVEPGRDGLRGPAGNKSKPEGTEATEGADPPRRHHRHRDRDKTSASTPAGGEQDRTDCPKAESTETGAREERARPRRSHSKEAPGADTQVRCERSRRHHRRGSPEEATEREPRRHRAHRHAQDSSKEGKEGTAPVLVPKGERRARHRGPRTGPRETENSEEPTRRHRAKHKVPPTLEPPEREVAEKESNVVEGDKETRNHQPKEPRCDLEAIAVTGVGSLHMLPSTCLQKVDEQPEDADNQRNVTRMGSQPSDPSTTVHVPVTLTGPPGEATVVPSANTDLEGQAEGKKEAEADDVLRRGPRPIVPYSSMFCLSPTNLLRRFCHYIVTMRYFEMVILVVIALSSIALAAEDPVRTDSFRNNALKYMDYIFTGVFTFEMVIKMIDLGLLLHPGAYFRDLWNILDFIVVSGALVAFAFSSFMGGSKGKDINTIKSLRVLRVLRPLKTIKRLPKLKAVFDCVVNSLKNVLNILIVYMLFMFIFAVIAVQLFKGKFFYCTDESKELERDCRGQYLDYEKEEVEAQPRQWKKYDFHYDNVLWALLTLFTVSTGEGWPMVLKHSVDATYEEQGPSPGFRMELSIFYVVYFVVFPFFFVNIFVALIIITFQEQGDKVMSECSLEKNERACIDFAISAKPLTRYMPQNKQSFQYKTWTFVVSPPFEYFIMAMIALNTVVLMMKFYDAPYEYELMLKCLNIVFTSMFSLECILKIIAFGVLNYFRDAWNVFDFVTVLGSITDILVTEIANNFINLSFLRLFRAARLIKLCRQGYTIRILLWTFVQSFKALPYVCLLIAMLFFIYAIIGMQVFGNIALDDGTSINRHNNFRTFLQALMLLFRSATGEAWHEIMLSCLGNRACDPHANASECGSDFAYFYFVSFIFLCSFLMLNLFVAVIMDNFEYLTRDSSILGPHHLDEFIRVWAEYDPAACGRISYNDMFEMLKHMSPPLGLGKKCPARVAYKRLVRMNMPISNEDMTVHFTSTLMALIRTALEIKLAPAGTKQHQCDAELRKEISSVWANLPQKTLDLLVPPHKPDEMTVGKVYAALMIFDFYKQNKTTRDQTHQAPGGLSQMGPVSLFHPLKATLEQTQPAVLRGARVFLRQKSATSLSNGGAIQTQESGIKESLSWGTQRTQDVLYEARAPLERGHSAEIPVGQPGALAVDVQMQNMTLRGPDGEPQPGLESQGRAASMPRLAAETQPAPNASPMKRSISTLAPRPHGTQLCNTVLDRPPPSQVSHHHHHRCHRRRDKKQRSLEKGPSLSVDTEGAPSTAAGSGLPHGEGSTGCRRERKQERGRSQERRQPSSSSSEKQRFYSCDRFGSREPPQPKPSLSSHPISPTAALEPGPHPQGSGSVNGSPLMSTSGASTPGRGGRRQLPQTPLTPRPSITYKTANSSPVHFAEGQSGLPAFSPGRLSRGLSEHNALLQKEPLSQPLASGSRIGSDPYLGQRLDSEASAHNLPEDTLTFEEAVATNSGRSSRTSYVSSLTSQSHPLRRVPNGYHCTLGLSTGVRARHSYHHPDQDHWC
Assay: Block of α1B N-type channels, whole cell patch recordings (Example 6)
Format: cell-based
Conditions: 0.2 Hz; HEK 293, 5 mM barium as charge carrier; read-out: Block of α1B N-type Channels IC50, 0.2 Hz
pIC50: −log10 of the molar value.
readout_name: pIC50

// below: answered molecules
>  <molecule>
O=C(CC(c1ccccc1)c1ccccc1)N1CCN(C(c2ccccc2)c2cc(C(F)(F)F)cc(C(F)(F)F)c2)CC1 (stereo not drawn) [P10 (HC1)]

>  <pIC50>
6.72

$$$$
>  <molecule>
O=C(CC(c1ccccc1)c1ccccc1)N1CCN(C(c2ccccc2)c2ccccc2C(F)(F)F)CC1 (stereo not drawn)

>  <pIC50>
6.52

$$$$

[1] O=C(CC(c1ccccc1)c1ccccc1)N1CCN([C@@H](c2ccccc2)c2ccc(Cl)cc2)CC1
[2] COc1ccc(C(c2ccc(OC)cc2)N2CCN(C(=O)CC(c3ccccc3)c3ccccc3)CC2)cc1
[3] CC1CN(C(c2ccccc2)c2ccccc2)CCN1C(=O)CC(c1ccccc1)c1ccccc1 (stereo not drawn)
[4] O=C(CC(c1ccccc1)c1ccccc1)N1CCN(C(c2ccccc2)c2cccc(Cl)c2)CC1 (stereo not drawn)
INPUT: Ascending by pIC50, please. Hello, could you send the labels back in the order asked? Thank you.
OUTPUT: 2, 1, 4, 3
(2: 6.60, 1: 6.86, 4: 7.36, 3: 7.62)

[P] COc1ccc(C(c2ccc(C(F)(F)F)cc2)N2CCN(C(=O)CC(c3ccccc3)c3ccccc3)CC2)cc1 (stereo not drawn)
[Q] O=C(CC(c1ccccc1)c1ccccc1)N1CCN(C2c3ccccc3Oc3ccccc32)CC1
[R] O=C(CC(c1ccccc1)c1ccccc1)N1CCN(C2c3ccccc3CCc3ccccc32)CC1
[S] COc1cc(C(c2ccccc2)N2CCN(C(=O)CC(c3ccccc3)c3ccccc3)CC2)cc(OC)c1OC (stereo not drawn)
INPUT: Rank by pIC50 (largest to smallest). Hello, could you send the labels back in the order asked? Thank you.
OUTPUT: P, Q, S, R
(P: 6.95, Q: 6.66, S: 6.29, R: 6.08)

[1] COc1ccc(C(c2ccccc2)N2CCN(C(=O)CC(c3ccccc3)c3ccccc3)CC2)cc1 (stereo not drawn)
[2] O=C(CC(c1ccccc1)c1ccccc1)N1CCN(C(c2ccccc2)c2cccc(C(F)(F)F)c2)CC1 (stereo not drawn) [Compound P2]
INPUT: Please let me know which one, 1 or 2 , has a lower measured pIC50 value. State your choice using its label.
OUTPUT: 1
(1: 6.60, 2: 6.98)

[I] O=C(CC(c1ccccc1)c1ccccc1)N1CCN(C(c2ccccc2)c2c(Cl)cccc2Cl)CC1 (stereo not drawn)
[II] CCOC(=O)C1CN(C(c2ccccc2)c2ccccc2)CCN1C(=O)CC(c1ccccc1)c1ccccc1 (stereo not drawn) [Compound P5]
INPUT: Please tell me which of the two, I or II , has the higher reported pIC50 value. State your choice using its label.
OUTPUT: II

###

In this section, each of the compounds is paired with its reported Maximum Possible Effect ± SEM, Phase II.
System: rat formalin model
Test: Formalin-induced pain model
Format: in vivo
Conditions: 30 mg/kg IP, 10 minutes prior to formalin, saline control=100%
Respond with the bare value in %.

>  <compound>
Cc1ccc(C(c2ccccc2)N2CCN(C(=O)CC(c3ccccc3)c3ccccc3)CC2)c(C)c1 (stereo not shown) [Compound P18]

>  <unit_of_measurement>
%

>  <Maximum Possible Effect ± SEM, Phase II>
84

$$$$
>  <compound>
O=C(CC(c1ccccc1)c1ccccc1)N1CCN(C(c2ccccc2)c2ccc(Cl)cc2Cl)CC1 (stereo not shown) [Compound P29]

>  <unit_of_measurement>
%

>  <Maximum Possible Effect ± SEM, Phase II>
70

$$$$
>  <compound>
O=C(CC(c1ccccc1)c1ccccc1)N1CCN(C(c2ccccc2)c2cccc(Cl)c2)CC1 (stereo not shown) [Compound P36]

>  <unit_of_measurement>
%

>  <Maximum Possible Effect ± SEM, Phase II>
60

$$$$

Sample O=C(CN(c1ccccc1)c1ccccc1)N1CCN(C(c2ccccc2)c2cccc(Cl)c2Cl)CC1 (stereo not shown) [Compound P50] ; Maximum Possible Effect ± SEM, Phase II observed: 63

Sample Cl.O=C(O)C1CN(C(c2ccccc2)c2ccccc2)CCN1C(=O)CC(c1ccccc1)c1ccccc1 (stereo not shown) [Compound P8] ; Maximum Possible Effect ± SEM, Phase II observed: 70

Sample COc1ccc(C(c2ccc(C(F)(F)F)cc2)N2CCN(C(=O)CC(c3ccccc3)c3ccccc3)CC2)cc1 (stereo not shown) [Compound P3] ; Maximum Possible Effect ± SEM, Phase II observed: 79

Sample O=C(CC(c1ccccc1)c1ccccc1)N1CCN(C(c2ccccc2)c2cccc(C(F)(F)F)c2)CC1 (stereo not shown) [Compound P2] ; Maximum Possible Effect ± SEM, Phase II observed: 67

Sample O=C(CC(c1ccccc1)c1ccccc1)N1CCN(C(c2ccccc2)c2ccccc2Cl)CC1 (stereo not shown) [Compound P35] ; Maximum Possible Effect ± SEM, Phase II observed: 67

Sample O=C(CC(c1ccccc1)c1ccccc1)N1CCN([C@@H](c2ccccc2)c2ccc(Cl)cc2)CC1 [Compound P47] ; Maximum Possible Effect ± SEM, Phase II observed: 55

Sample O=C(CC(c1ccccc1)c1ccccc1)N1CCN(C(c2ccccc2)c2ccc3c(c2)OCO3)CC1 (stereo not shown) [Compound P7] ; Maximum Possible Effect ± SEM, Phase II observed: 67
